Assay: amyloid nucleation score (Sup35N fusion, yeast selection) (log enrichment); library NNK1; higher = more nucleation; inactive = no reads after selection;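 further: zero at mode of non-aggregating sequences after 7 days selection at 30°C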
# Lookup of reported amyloid nucleation score keyed by entry
Form: value (number only, do not type unit).

Here are 4 substances together with their reported answers.
{"substance": "GNMSCPFVQRREVLLC", "amyloid nucleation score": -0.383}
{"substance": "MDKSELK", "amyloid nucleation score": 0.128}
{"substance": "QLKCPKNDHVIVWDFCINQL", "amyloid nucleation score": 2.28}
{"substance": "RSYGGLIKFNHVSDTL", "amyloid nucleation score": -0.429}

Input line: Item LVLSVFWRNVVWAINLAVVS has what recorded amyloid nucleation score?
Output line: -0.521
